Could you please report measured 3x freeze-thaw Av. Accuracy (%) for the items listed next?
Assay: Stability of substrates and metabolites in quality control samples (benchtop, autosampler, freeze-thaw)
Type: physicochemical
Conditions: QC conc. 60 ng/ml; after three freeze-thaw cycles

Dear colleague, could you send me 3x freeze-thaw Av. Accuracy (%) for each of the items below? Thanks.
1. COCC(O)c1ccc(OCC(O)CNC(C)C)cc1 (stereo not drawn) [OH-metoprolol]
2. COc1ccc2nc([S+]([O-])Cc3ncc(CO)c(OC)c3C)[nH]c2c1 (stereo not drawn) [5-OH-omeprazole]
3. COCCc1ccc(OCC(O)CNC(C)C)cc1 (stereo not drawn) [metoprolol, reference compound]

Response:
1. 91,98%
2. 99,23%
3. 105,26%

* * *

Assay: Determination of PCB concentrations in plasma of HELPcB and control participants
Format: in vivo
Settings: human plasma; control group, N 10
Experimental: The laboratory regularly participates in round robins for the determination of PCBs in plasma (www.g-equas.de). Plasma concentrations of PCB congeners were quantified in blood samples from all participants using gas chromatography/mass spectrometry (GC–MS) (Fig. 2A and Supplementary Table 2). A total of 19 PCB congeners were measured in control (n = 10) and HELPcB (n = 10) participants, with PCBs detected in all individuals. […]
Lab note: compare PCB plasma concentration, Geometric mean, Control against 0.01 ng/mL. Equal or greater, write yes. Smaller, write no.

>>> assigned_label("Clc1cc(-c2ccc(Cl)c(Cl)c2Cl)cc(Cl)c1Cl [PCB 157]")
"no"

Query: Quick check: does Clc1cc(Cl)c(-c2ccc(Cl)c(Cl)c2Cl)cc1Cl [PCB138] have PCB plasma concentration, Geometric mean, Control greater than or equal to 0.01 ng/mL?
Response: yes

Query: Is the recorded value of PCB plasma concentration, Geometric mean, Control equal to or greater than 0.01 ng/mL for this molecule? Clc1ccc(-c2cc(Cl)c(Cl)cc2Cl)cc1Cl [PCB118]
Response: yes

Query: Textbook exercise: given the entry Clc1cc(Cl)c(-c2cc(Cl)c(Cl)cc2Cl)cc1Cl [PCB 153] , state whether its PCB plasma concentration, Geometric mean, Control is greater than or equal to 0.01 ng/mL.
Response: yes

Query: Identify whether the reported PCB plasma concentration, Geometric mean, Control of the following molecule is 0.01 ng/mL or greater: Clc1ccc(-c2cc(Cl)c(Cl)c(Cl)c2Cl)cc1Cl [PCB 156]
Response: yes

Query: Textbook exercise: given the entry Clc1cc(-c2cc(Cl)c(Cl)c(Cl)c2Cl)cc(Cl)c1Cl [PCB 189] , state whether its PCB plasma concentration, Geometric mean, Control is greater than or equal to 0.01 ng/mL.
Response: no

Query: State whether the measured PCB plasma concentration, Geometric mean, Control reaches 0.01 ng/mL, counting equality as reaching it, for Clc1ccc(-c2ccc(Cl)cc2Cl)cc1 [PCB 28]
Response: no

Query: Decide: is the reported value of PCB plasma concentration, Geometric mean, Control for Clc1cc(Cl)c(-c2cc(Cl)c(Cl)c(Cl)c2Cl)cc1Cl [PCB 180] equal to or greater than 0.01 ng/mL?
Response: yes

Query: Given Clc1cc(Cl)c(-c2cc(Cl)c(Cl)c(Cl)c2)cc1Cl [PCB 167] , state whether its PCB plasma concentration, Geometric mean, Control is at least 0.01 ng/mL.
Response: no

* * *

Experiment: Stability of substrates and metabolites in quality control samples (benchtop, autosampler, freeze-thaw)
Format: physicochemical
Conditions: QC conc. 0,5 ng/ml; after three freeze-thaw cycles
readout_type: 3x freeze-thaw Av. Accuracy (%)

>>> result("COc1ccc2[nH]c([S+]([O-])Cc3ncc(C)c(OC)c3C)nc2c1 (centres unmarked) [omeprazol, omeprazole, reference compound]")
"112,03%"
>>> result("COCC(O)c1ccc(OCC(O)CNC(C)C)cc1 (centres unmarked)")
"95,27%"
>>> result("O=C1Nc2c(O)cc(Cl)cc2[C@@](C#CC2CC2)(C(F)(F)F)O1")
"84,9%"
>>> result("COc1ccc2nc([S+]([O-])Cc3ncc(CO)c(OC)c3C)[nH]c2c1 (centres unmarked)")
"105,73%"

Next compound, please.
Query: Return reported 3x freeze-thaw Av. Accuracy (%); argument: COCCc1ccc(OCC(O)CNC(C)C)cc1 (centres unmarked) [metoprolol, reference compound]
Response: 109,56%

* * *

For each of the compounds below, state its Autosampler stability (24 h) Av. Accuracy (%).
Test: Stability of substrates and metabolites in quality control samples (benchtop, autosampler, freeze-thaw)
Assay type: physicochemical
Details: QC conc. 0,25 ng/ml; 10° C for 24 hours in the autosampler

Some entries whose results are on file:
>>> result("COc1ccc2nc([S+]([O-])Cc3ncc(CO)c(OC)c3C)[nH]c2c1 (centres unmarked)")
"90,94%"
>>> result("O=C1Nc2c(O)cc(Cl)cc2[C@@](C#CC2CC2)(C(F)(F)F)O1")
"86,81%"
>>> result("COCC(O)c1ccc(OCC(O)CNC(C)C)cc1 (centres unmarked)")
"90,24%"

For each of the items listed, what is its Autosampler stability (24 h) Av. Accuracy (%)?
1. COc1ccc2[nH]c([S+]([O-])Cc3ncc(C)c(OC)c3C)nc2c1 (centres unmarked) [omeprazol, omeprazole, reference compound]
2. COCCc1ccc(OCC(O)CNC(C)C)cc1 (centres unmarked) [metoprolol, reference compound]

Response:
1: 102,23%; 2: 105,01%

* * *

Test: Stability of substrates and metabolites in quality control samples (benchtop, autosampler, freeze-thaw)
Format: physicochemical
Conditions: QC conc. 150 ng/ml; 10° C for 24 hours in the autosampler
readout_type: Autosampler stability (24 h) Av. Accuracy (%)

>>> result("O=C1Nc2ccc(Cl)cc2[C@@](C#CC2CC2)(C(F)(F)F)O1 [efavirenz, reference compound]")
"115,3%"
>>> result("O=C1Nc2c(O)cc(Cl)cc2[C@@](C#CC2CC2)(C(F)(F)F)O1")
"78,85%"
>>> result("COc1ccc2[nH]c([S+]([O-])Cc3ncc(C)c(OC)c3C)nc2c1 (stereo not drawn) [omeprazol, omeprazole, reference compound]")
"103,07%"
>>> result("COCC(O)c1ccc(OCC(O)CNC(C)C)cc1 (stereo not drawn)")
"88,29%"
>>> result("COCCc1ccc(OCC(O)CNC(C)C)cc1 (stereo not drawn) [metoprolol, reference compound]")
"100,37%"

Turning now to a further compound:
Query: I have this compound here, COc1ccc2nc([S+]([O-])Cc3ncc(CO)c(OC)c3C)[nH]c2c1 (stereo not drawn) , and I need its recorded Autosampler stability (24 h) Av. Accuracy (%).
Response: 97,73%

* * *

Assay: Stability of substrates and metabolites in quality control samples (benchtop, autosampler, freeze-thaw)
Assay type: physicochemical
Details: QC conc. 150 ng/ml; after three freeze-thaw cycles
readout_type: 3x freeze-thaw Av. Accuracy (%)

>>> result("COc1ccc2[nH]c([S+]([O-])Cc3ncc(C)c(OC)c3C)nc2c1 (stereo not drawn) [omeprazol, omeprazole, reference compound]")
"105,55%"
>>> result("O=C1Nc2c(O)cc(Cl)cc2[C@@](C#CC2CC2)(C(F)(F)F)O1")
"77,49%"
>>> result("COCCc1ccc(OCC(O)CNC(C)C)cc1 (stereo not drawn) [metoprolol, reference compound]")
"98,84%"
>>> result("O=C1Nc2ccc(Cl)cc2[C@@](C#CC2CC2)(C(F)(F)F)O1 [efavirenz, reference compound]")
"112,08%"
>>> result("COCC(O)c1ccc(OCC(O)CNC(C)C)cc1 (stereo not drawn)")
"87,96%"

Moving on to the next compound.
Query: Tell me the measured 3x freeze-thaw Av. Accuracy (%) of COc1ccc2nc([S+]([O-])Cc3ncc(CO)c(OC)c3C)[nH]c2c1 (stereo not drawn) , please.
Response: 100,57%

* * *

Assay: Stability of substrates and metabolites in quality control samples (benchtop, autosampler, freeze-thaw)
Format: physicochemical
Settings: QC conc. 0,25 ng/ml; room temperature for 19 hours
Kindly state Benchtop stability (19 h) Ac. Accuracy (%) for each of the entries shown.

>>> result("O=C1Nc2c(O)cc(Cl)cc2[C@@](C#CC2CC2)(C(F)(F)F)O1")
"69,5%"
>>> result("COc1ccc2[nH]c([S+]([O-])Cc3ncc(C)c(OC)c3C)nc2c1 (centres unmarked) [omeprazol, omeprazole, reference compound]")
"91,86%"

// each molecule listed below needs its Benchtop stability (19 h) Ac. Accuracy (%)
1. COCCc1ccc(OCC(O)CNC(C)C)cc1 (centres unmarked) [metoprolol, reference compound]
2. COCC(O)c1ccc(OCC(O)CNC(C)C)cc1 (centres unmarked)
3. COc1ccc2nc([S+]([O-])Cc3ncc(CO)c(OC)c3C)[nH]c2c1 (centres unmarked)

Response:
1. 92,77%
2. 81,14%
3. 99,1%

* * *

Assay: Stability of substrates and metabolites in quality control samples (benchtop, autosampler, freeze-thaw)
Format: physicochemical
Conditions: QC conc. 1,5 ng/ml; after three freeze-thaw cycles
readout_type: 3x freeze-thaw Av. Accuracy (%)

Record excerpt, results attached:
>>> result("COCCc1ccc(OCC(O)CNC(C)C)cc1 (centres unmarked) [metoprolol, reference compound]")
"103,63%"
>>> result("O=C1Nc2c(O)cc(Cl)cc2[C@@](C#CC2CC2)(C(F)(F)F)O1")
"79,73%"
>>> result("COc1ccc2[nH]c([S+]([O-])Cc3ncc(C)c(OC)c3C)nc2c1 (centres unmarked) [omeprazol, omeprazole, reference compound]")
"111,42%"

Can you give me 3x freeze-thaw Av. Accuracy (%) for all of these, one by one?
1. COc1ccc2nc([S+]([O-])Cc3ncc(CO)c(OC)c3C)[nH]c2c1 (centres unmarked)
2. COCC(O)c1ccc(OCC(O)CNC(C)C)cc1 (centres unmarked)

Response:
1. 103,03%
2. 95,33%
